system: 454973-116-R2-J3-PDC spheroids, viability, % test/control; assay: Anticancer human tumor 454973-116-R2-J3-PDC patient-derived pancreatic carcinoma cell line growth inhibition [GQUAD]; settings: second compound 1 µM; first compound 0.316 µM; active compounds read low; spheroids with HUVEC and MSC;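 also: spheroids exposed to compounds for seven days; 100% = DMSO vehicle control viability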
reported-metric: viability, T/C (%)
Kindly provide the numeric value in % only, without the unit symbol.

Some solved cases for reference:
Cn1ncnc1[C@H]1c2n[nH]c(=O)c3cc(F)cc(c23)N[C@@H]1c1ccc(F)cc1 + Cc1[nH]c2ccc(F)cc2c1-c1nc2c3cccnc3c3ncccc3c2[nH]1; 81
O=C(NO)c1cnc(N2CCN(S(=O)(=O)c3ccc4ccccc4c3)CC2)nc1 + Cc1[nH]c2ccc(F)cc2c1-c1nc2c3cccnc3c3ncccc3c2[nH]1; 73
CCCS(=O)(=O)Nc1ccc(F)c(C(=O)c2c[nH]c3ncc(-c4ccc(Cl)cc4)cc23)c1F + CN(C)c1ccc(Nc2c3ccc(NC(=O)CCN4CCCC4)cc3nc3cc(NC(=O)CCN4CCCC4)ccc23)cc1; 104
C#Cc1c(F)ccc2cc(O)cc(-c3ncc4c(N5CC6CCC(C5)N6)nc(OCC56CCCN5CC(F)C6)nc4c3F)c12 (stereo not given) + Cc1[nH]c2ccc(F)cc2c1-c1nc2c3cccnc3c3ncccc3c2[nH]1; 29.8

Here is the next item to consider.
Please give the measured viability, T/C for this molecule: O=C(NO)c1cnc(N2CCN(S(=O)(=O)c3ccc4ccccc4c3)CC2)nc1 + Cc1cnc(CNC(=O)c2c(=O)c3ccc(N4CCCN(C)CC4)nc3n3c2sc2ccccc23)cn1
21.8
